Cited source: PubChem BioAssay AID561

Biological target: Nuclear receptor ROR-alpha (Homo sapiens) (UniProt P35398)
Sequence (P35398 whole entry, looked up): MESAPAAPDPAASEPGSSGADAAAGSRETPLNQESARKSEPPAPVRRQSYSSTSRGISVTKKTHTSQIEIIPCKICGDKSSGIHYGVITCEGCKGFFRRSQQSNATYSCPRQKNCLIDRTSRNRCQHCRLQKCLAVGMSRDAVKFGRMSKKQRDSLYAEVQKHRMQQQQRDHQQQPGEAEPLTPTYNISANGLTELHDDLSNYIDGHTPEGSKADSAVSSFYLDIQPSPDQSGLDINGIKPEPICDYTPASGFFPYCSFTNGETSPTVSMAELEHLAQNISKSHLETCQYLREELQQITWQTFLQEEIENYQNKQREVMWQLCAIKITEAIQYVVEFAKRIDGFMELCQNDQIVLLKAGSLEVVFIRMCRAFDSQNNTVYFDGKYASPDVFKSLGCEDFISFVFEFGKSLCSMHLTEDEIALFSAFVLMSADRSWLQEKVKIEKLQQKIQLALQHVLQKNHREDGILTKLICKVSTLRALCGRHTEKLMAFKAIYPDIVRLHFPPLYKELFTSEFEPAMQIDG
Assay: suppression of basal RORA-driven reporter transcription – cell-based, luminescence, primary screen (AID 561);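 also: 0% = RORA-transfected cells with DMSO and 100% = mock-transfected cells lacking RORA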
Settings: CHO-K1 Gal4-RORA LBD luciferase reporter, at 10 µM, stronger effect = higher value
The whole screen tested about 65,000 compounds, of which about 280 (0.43%) were called active. This is one part of a sample in which actives are shown more often than they occur.
parameter: inhibition (%)

[[record]]
compound = "Cn1c(SCC(=O)Nc2cccc(O)c2)nnc1-c1ccc(S(=O)(=O)N2CCOCC2)cc1"
parameter = "inhibition"
observedvalue = -31.5

[[record]]
compound = "Cc1ccc(F)cc1NC(=O)Cc1nn(C)c(=O)c2ccccc12"
parameter = "inhibition"
observedvalue = 53.5

[[record]]
compound = "O=C(CCC(=O)c1cccs1)NCc1ccccc1"
parameter = "inhibition"
observedvalue = 2.2

[[record]]
compound = "Cc1ccnc(N2CCCC(C(=O)Nc3cc(F)ccc3C)C2)n1 (stereo unspecified)"
parameter = "inhibition"
observedvalue = 5.7

[[record]]
compound = "CCCN(c1ccc(C(C)C)cc1)S(=O)(=O)c1c(C)[nH]c(=O)[nH]c1=O"
parameter = "inhibition"
observedvalue = -10.6

[[record]]
compound = "OC1CN=C2Sc3ccccc3N2C1 (stereo unspecified)"
parameter = "inhibition"
observedvalue = 10.5

